Below, each entry is listed with its recorded koff.
- TARGET_OF_ASSAY: T1, recombinant human GM-CSF protein (human, UniProt P04141 18-144)
- T1 construct: Bought recombinant protein (Genscript); also called biotinylated human GM-CSF protein
- ASSAY_OVERVIEW: SPR Biacore T200, antibody captured by anti-human Fc, GM-CSF as analyte, 25 C, 1:1 model
// return numeric value only (unit: s⁻¹, not printed)

// below: answered binders
Hu23F4-5 (antibody, V domains shown, Humanized) VH: EVQLVQSGAEVKKPGATVKISCKVSGYTFTSHYLHWVQQAPGKGLEWMGWIFPGDDKTKYNEKFKGRVTITSDTSTDTAYMELSSLRSEDTAVYYCARGTKYLNWNFDVWGQGTTVTVSS VL: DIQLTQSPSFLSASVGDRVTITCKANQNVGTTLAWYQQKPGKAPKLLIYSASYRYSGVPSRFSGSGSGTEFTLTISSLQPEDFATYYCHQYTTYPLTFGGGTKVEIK ... 0.000124
Hu23F4-25 (antibody, V domains shown, Humanized) VH: EVQLVQSGAEVKKPGASVKVSCKASGYTFTSHYLHWVRQAPGQGLEWMGWIFPGDDKTKYNEKFKGRVTMTSDTSISTAYMELSRLRSDDTAVYYCARGTKYLNWNFDVWGQGTTVTVSS VL: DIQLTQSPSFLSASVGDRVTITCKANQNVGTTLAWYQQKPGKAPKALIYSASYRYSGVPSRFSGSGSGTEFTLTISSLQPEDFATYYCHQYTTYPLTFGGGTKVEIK ... 0.000109

Read the next record carefully.
-- ask Report measured koff; entry is Hu23F4-20 (antibody, V domains shown, Humanized) VH: EVQLVQSGAEVKKPGASVKVSCKASGYTFTSHYLHWVRQAPGQGLEWMGWIFPGDDKTKYNEKFKGRVTMTRDTSISTAYMELSRLRSDDTAVYYCARGTKYLNWNFDVWGQGTTVTVSS VL: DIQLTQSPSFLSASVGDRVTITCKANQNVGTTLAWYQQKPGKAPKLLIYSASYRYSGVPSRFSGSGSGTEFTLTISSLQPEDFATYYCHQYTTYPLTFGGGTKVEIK
-- reply 0.000114
